Assay: Phase 1 single and multiple ascending dose and food effect study of Compound 2 in healthy subjects
Conditions: human, in vivo

| chem-smiles | half-life |
| --- | --- |
| COC(=O)N[C@H](C(=O)N1CCC[C@H]1c1nc2cc([C@H]3CC[C@H](c4cc5nc([C@@H]6CCCN6C(=O)[C@@H](NC(=O)OC)[C@@H](C)OC)[nH]c5cc4F)N3c3cc(F)c(N4CCC(c5ccc(F)cc5)CC4)c(F)c3)c(F)cc2[nH]1)[C@@H](C)OC | 20 to 22 h |
